src = BigSolDB 2.1

conditions: in isopropanol, 270.15 K
PROPERTY_LABEL: solubility (mole fraction)
Reply briefly: the number, and no unit.

Give its solubility (mole fraction) value. Item: `COC1=C(OC)C(=O)C(C/C=C(\C)CC/C=C(\C)CC/C=C(\C)CC/C=C(\C)CC/C=C(\C)CC/C=C(\C)CC/C=C(\C)CC/C=C(\C)CC/C=C(\C)CCC=C(C)C)=C(C)C1=O`
7e-06

###

conditions: in isopropanol, 300.15 K
PROPERTY_LABEL: solubility (mole fraction)
Reply briefly: the number, and no unit.

Give its solubility (mole fraction) value. Item: `COC1=C(OC)C(=O)C(C/C=C(\C)CC/C=C(\C)CC/C=C(\C)CC/C=C(\C)CC/C=C(\C)CC/C=C(\C)CC/C=C(\C)CC/C=C(\C)CC/C=C(\C)CCC=C(C)C)=C(C)C1=O`
0.0005

###

conditions: in n-hexane, 300.15 K
PROPERTY_LABEL: solubility (mole fraction)
Reply briefly: the number, and no unit.

Give its solubility (mole fraction) value. Item: `COC1=C(OC)C(=O)C(C/C=C(\C)CC/C=C(\C)CC/C=C(\C)CC/C=C(\C)CC/C=C(\C)CC/C=C(\C)CC/C=C(\C)CC/C=C(\C)CC/C=C(\C)CCC=C(C)C)=C(C)C1=O`
0.0931

###

conditions: in ethanol, 280.15 K
PROPERTY_LABEL: solubility (mole fraction)
Reply briefly: the number, and no unit.

Give its solubility (mole fraction) value. Item: `COC1=C(OC)C(=O)C(C/C=C(\C)CC/C=C(\C)CC/C=C(\C)CC/C=C(\C)CC/C=C(\C)CC/C=C(\C)CC/C=C(\C)CC/C=C(\C)CC/C=C(\C)CCC=C(C)C)=C(C)C1=O`
1.1e-05

###

conditions: in n-propanol, 320.15 K
PROPERTY_LABEL: solubility (mole fraction)
Reply briefly: the number, and no unit.

Give its solubility (mole fraction) value. Item: `COC1=C(OC)C(=O)C(C/C=C(\C)CC/C=C(\C)CC/C=C(\C)CC/C=C(\C)CC/C=C(\C)CC/C=C(\C)CC/C=C(\C)CC/C=C(\C)CC/C=C(\C)CCC=C(C)C)=C(C)C1=O`
0.011

###

conditions: in isopropanol, 310.15 K
PROPERTY_LABEL: solubility (mole fraction)
Reply briefly: the number, and no unit.

Give its solubility (mole fraction) value. Item: `COC1=C(OC)C(=O)C(C/C=C(\C)CC/C=C(\C)CC/C=C(\C)CC/C=C(\C)CC/C=C(\C)CC/C=C(\C)CC/C=C(\C)CC/C=C(\C)CC/C=C(\C)CCC=C(C)C)=C(C)C1=O`
0.0029

###

settings: in isopropanol, 280.15 K
PROPERTY_LABEL: solubility (mole fraction)

Give its solubility (mole fraction) value. Item: `COC1=C(OC)C(=O)C(C/C=C(\C)CC/C=C(\C)CC/C=C(\C)CC/C=C(\C)CC/C=C(\C)CC/C=C(\C)CC/C=C(\C)CC/C=C(\C)CC/C=C(\C)CCC=C(C)C)=C(C)C1=O`
8e-06

###

details: in ethyl acetate, 320.15 K
PROPERTY_LABEL: solubility (mole fraction)
Reply briefly: the number, and no unit.

Give its solubility (mole fraction) value. Item: `COC1=C(OC)C(=O)C(C/C=C(\C)CC/C=C(\C)CC/C=C(\C)CC/C=C(\C)CC/C=C(\C)CC/C=C(\C)CC/C=C(\C)CC/C=C(\C)CC/C=C(\C)CCC=C(C)C)=C(C)C1=O`
0.647

###

conditions: in n-butanol, 280.15 K
PROPERTY_LABEL: solubility (mole fraction)
Reply briefly: the number, and no unit.

Give its solubility (mole fraction) value. Item: `COC1=C(OC)C(=O)C(C/C=C(\C)CC/C=C(\C)CC/C=C(\C)CC/C=C(\C)CC/C=C(\C)CC/C=C(\C)CC/C=C(\C)CC/C=C(\C)CC/C=C(\C)CCC=C(C)C)=C(C)C1=O`
1.7e-05

###

conditions: in isopropanol, 320.15 K
PROPERTY_LABEL: solubility (mole fraction)
Reply briefly: the number, and no unit.

Give its solubility (mole fraction) value. Item: `COC1=C(OC)C(=O)C(C/C=C(\C)CC/C=C(\C)CC/C=C(\C)CC/C=C(\C)CC/C=C(\C)CC/C=C(\C)CC/C=C(\C)CC/C=C(\C)CC/C=C(\C)CCC=C(C)C)=C(C)C1=O`
0.0165

###

conditions: in ethyl acetate, 290.15 K
PROPERTY_LABEL: solubility (mole fraction)
Reply briefly: the number, and no unit.

Give its solubility (mole fraction) value. Item: `COC1=C(OC)C(=O)C(C/C=C(\C)CC/C=C(\C)CC/C=C(\C)CC/C=C(\C)CC/C=C(\C)CC/C=C(\C)CC/C=C(\C)CC/C=C(\C)CC/C=C(\C)CCC=C(C)C)=C(C)C1=O`
0.0178

###

details: in n-propanol, 280.15 K
PROPERTY_LABEL: solubility (mole fraction)
Reply briefly: the number, and no unit.

Give its solubility (mole fraction) value. Item: `COC1=C(OC)C(=O)C(C/C=C(\C)CC/C=C(\C)CC/C=C(\C)CC/C=C(\C)CC/C=C(\C)CC/C=C(\C)CC/C=C(\C)CC/C=C(\C)CC/C=C(\C)CCC=C(C)C)=C(C)C1=O`
0.0002

###

details: in n-butanol, 290.15 K
PROPERTY_LABEL: solubility (mole fraction)
Reply briefly: the number, and no unit.

Give its solubility (mole fraction) value. Item: `COC1=C(OC)C(=O)C(C/C=C(\C)CC/C=C(\C)CC/C=C(\C)CC/C=C(\C)CC/C=C(\C)CC/C=C(\C)CC/C=C(\C)CC/C=C(\C)CC/C=C(\C)CCC=C(C)C)=C(C)C1=O`
0.0001

###

settings: in n-hexane, 320.15 K
PROPERTY_LABEL: solubility (mole fraction)

Give its solubility (mole fraction) value. Item: `COC1=C(OC)C(=O)C(C/C=C(\C)CC/C=C(\C)CC/C=C(\C)CC/C=C(\C)CC/C=C(\C)CC/C=C(\C)CC/C=C(\C)CC/C=C(\C)CC/C=C(\C)CCC=C(C)C)=C(C)C1=O`
0.55

###

conditions: in ethanol, 320.15 K
PROPERTY_LABEL: solubility (mole fraction)
Reply briefly: the number, and no unit.

Give its solubility (mole fraction) value. Item: `COC1=C(OC)C(=O)C(C/C=C(\C)CC/C=C(\C)CC/C=C(\C)CC/C=C(\C)CC/C=C(\C)CC/C=C(\C)CC/C=C(\C)CC/C=C(\C)CC/C=C(\C)CCC=C(C)C)=C(C)C1=O`
0.0014

###

details: in n-propanol, 310.15 K
PROPERTY_LABEL: solubility (mole fraction)
Reply briefly: the number, and no unit.

Give its solubility (mole fraction) value. Item: `COC1=C(OC)C(=O)C(C/C=C(\C)CC/C=C(\C)CC/C=C(\C)CC/C=C(\C)CC/C=C(\C)CC/C=C(\C)CC/C=C(\C)CC/C=C(\C)CC/C=C(\C)CCC=C(C)C)=C(C)C1=O`
0.0039

###

conditions: in ethanol, 310.15 K
PROPERTY_LABEL: solubility (mole fraction)
Reply briefly: the number, and no unit.

Give its solubility (mole fraction) value. Item: `COC1=C(OC)C(=O)C(C/C=C(\C)CC/C=C(\C)CC/C=C(\C)CC/C=C(\C)CC/C=C(\C)CC/C=C(\C)CC/C=C(\C)CC/C=C(\C)CC/C=C(\C)CCC=C(C)C)=C(C)C1=O`
0.0002

###

settings: in ethanol, 290.15 K
PROPERTY_LABEL: solubility (mole fraction)
Reply briefly: the number, and no unit.

Give its solubility (mole fraction) value. Item: `COC1=C(OC)C(=O)C(C/C=C(\C)CC/C=C(\C)CC/C=C(\C)CC/C=C(\C)CC/C=C(\C)CC/C=C(\C)CC/C=C(\C)CC/C=C(\C)CC/C=C(\C)CCC=C(C)C)=C(C)C1=O`
1.6e-05

###

settings: in ethanol, 270.15 K
PROPERTY_LABEL: solubility (mole fraction)
Reply briefly: the number, and no unit.

Give its solubility (mole fraction) value. Item: `COC1=C(OC)C(=O)C(C/C=C(\C)CC/C=C(\C)CC/C=C(\C)CC/C=C(\C)CC/C=C(\C)CC/C=C(\C)CC/C=C(\C)CC/C=C(\C)CC/C=C(\C)CCC=C(C)C)=C(C)C1=O`
1e-05

###

conditions: in n-propanol, 300.15 K
PROPERTY_LABEL: solubility (mole fraction)
Reply briefly: the number, and no unit.

Give its solubility (mole fraction) value. Item: `COC1=C(OC)C(=O)C(C/C=C(\C)CC/C=C(\C)CC/C=C(\C)CC/C=C(\C)CC/C=C(\C)CC/C=C(\C)CC/C=C(\C)CC/C=C(\C)CC/C=C(\C)CCC=C(C)C)=C(C)C1=O`
0.0014

###

conditions: in n-butanol, 310.15 K
PROPERTY_LABEL: solubility (mole fraction)
Reply briefly: the number, and no unit.

Give its solubility (mole fraction) value. Item: `COC1=C(OC)C(=O)C(C/C=C(\C)CC/C=C(\C)CC/C=C(\C)CC/C=C(\C)CC/C=C(\C)CC/C=C(\C)CC/C=C(\C)CC/C=C(\C)CC/C=C(\C)CCC=C(C)C)=C(C)C1=O`
0.0107
